# PROTOCOL: NCI Yeast Anticancer Drug Screen. Data for the bub3 strain (AID 167)
# STATED_CONDITIONS: S. cerevisiae bub3 mutant strain, at 50.0 µM, active compounds read high
The panel holds about 79,000 compounds, 15% with a hit somewhere; the sample as a whole holds those more often.
ENDPOINT_NAME: growth inhibition (%)

| COMPOUND | ENDPOINT_NAME | QUANTITY_UNIT | EXPERIMENTAL_RESULT |
| --- | --- | --- | --- |
| O=C(CCCCC(=O)Nc1ccc2[nH]c3ccccc3c(=O)c2c1)Nc1ccc2[nH]c3ccccc3c(=O)c2c1 | growth inhibition | % | -3.45 |
| COc1cc2c(c(OC)c1OC)-c1ccc(OC)c(=O)cc1C(NC(=O)CCCCCNc1ccc(N=[N+]=[N-])cc1[N+](=O)[O-])CC2 (stereo unspecified) | growth inhibition | % | 12.8 |
| CP(=O)(c1ccccc1)c1ccccc1OCCCOCCCOc1ccccc1P(C)(=O)c1ccccc1 (stereo unspecified) | growth inhibition | % | -3.55 |
| CCO/C=C1\SC(=S)N(CCc2ccc(OC)c(OC)c2)C1=O | growth inhibition | % | -5.6 |
| C[C@@H](O)[C@H](NSc1ccccc1[N+](=O)[O-])C(=O)NCCc1nc(-c2nc(C(=O)NCCCBr)cs2)cs1 | growth inhibition | % | 1.55 |
| Cc1ccc(N=Nc2ccc(C)cc2NC(=O)c2ccc(Cl)cc2)cc1 | growth inhibition | % | 32.3 |

----------
This listing pairs compounds with measured growth inhibition.
# PROTOCOL: NCI Yeast Anticancer Drug Screen. Data for the bub3 strain (AID 167)
# STATED_CONDITIONS: S. cerevisiae bub3 mutant strain, at 50.0 µM, active compounds read high
The panel holds about 79,000 compounds, 15% with a hit somewhere; the sample as a whole holds those more often.
ENDPOINT_NAME: growth inhibition (%)

| COMPOUND | EXPERIMENTAL_RESULT |
| --- | --- |
| CCN(CC)CCN(C)CCN(CC)CC | 38.7 |
| Nc1[nH]c(=O)ncc1[N+](=O)[O-] | -16.2 |
| O=C(C(=O)N1CCc2ccccc21)c1c[nH]c2ccccc12 | -2.95 |
| NC(=O)c1ccccc1NC(=O)C(=O)C(c1cnc2ccc([N+](=O)[O-])cc2n1)[N+](=O)[O-] (stereo unspecified) | 5.85 |
| Nc1ccc2cc(S(=O)(=O)O)ccc2c1 | 0.95 |
| C/C(=C/c1c(C)[nH]c(=O)[nH]c1=O)C(=O)O | 8.75 |

----------
# PROTOCOL: NCI Yeast Anticancer Drug Screen. Data for the mec2-1 strain (AID 157)
# STATED_CONDITIONS: S. cerevisiae mec2-1 strain, at 50.0 µM, active compounds read high
Compounds without any hit were thinned out: in the full panel of roughly 79,000, 15% have a hit.
ENDPOINT_NAME: growth inhibition (%)

| MOLECULE | QUANTITY_UNIT | EXPERIMENTAL_RESULT |
| --- | --- | --- |
| CCC(C(N)C(=O)O)C(F)(F)F (stereo not given) | % | -32.1 |
| COc1cccc2c1OC(=O)NC2O (stereo not given) | % | -4.3 |
| N#CC(c1ccccc1)N(CCc1ccccc1)C(=O)Oc1ccccc1 (stereo not given) | % | -19.6 |
| Cc1ccc(-c2nnc(CCCCCCCCc3nnc(-c4ccc(C)cc4O)n3N)n2N)c(O)c1 | % | -21.9 |
| N#C/C(=C/N1C(=O)/C(=C/c2ccc([N+](=O)[O-])cc2)SC1=S)C(N)=O | % | 56.5 |
| CCc1cccc(CC)c1N=C(NC(=O)c1ccc(Br)cc1)SC | % | -16.5 |
| CCCCCNC(=O)CCC | % | 1.2 |
| CC(=O)Nc1nc(Cl)c2ncn(C3CCCO3)c2n1 (stereo not given) | % | -4 |
| ClC1=C(Cl)C2(Cl)C3C(CC4C3C3(Cl)C(Cl)=C(Cl)C4(Cl)C3(Cl)Cl)C1(Cl)C2(Cl)Cl (stereo not given) | % | -7.4 |
| Cc1cc2c(c3c1C(=O)CC3)CCCC2(C)C | % | 3.9 |
| CCC(CC)c1ccc2ccccc2c1 | % | 1 |
| [Cl][Pt+2][Cl].[NH-]C1CCC1[NH-] (stereo not given) | % | -9.3 |
| CC(C)(C)c1cc(O)c(C(=O)O)cc1O | % | 29.6 |
| Cc1cccc(-c2cc(=O)c3c(C)cc(C)nc3[nH]2)c1 | % | 2.7 |
| O=C(OCC1C2CCC(C2)C1c1ccccc1)c1ccc([N+](=O)[O-])cc1 (stereo not given) | % | 8.5 |
| CC1(C)CC(=O)C(/C=N/C(=S)NCc2ccccc2)=C(O)C1 | % | -49.1 |
| C[C@@]12CCC3C1C=C1C(=O)c4cc(O)ccc4C(=O)[C@]1(O2)[C@@]3(C)C=O | % | 2 |
| CC(C)(CCCOc1ccccc1)/C(=N/O)c1ccccc1 | % | 5.6 |
| CC(C)(C)C(=O)C(C#N)C(=O)C(C)(C)C | % | -19.9 |
| O=C(CCCC(=O)Nc1cccc([N+](=O)[O-])c1)CC(=O)c1ccc([N+](=O)[O-])cc1 | % | -1.25 |
| COc1cc([N+](=O)[O-])c(C=O)c(C(=O)O)c1OC | % | -1.85 |
| NC(Cc1ccccc1)C(=O)Nc1cccnc1 (stereo not given) | % | 15.2 |
| NC(CCCNc1nc(O)c(-c2ccccc2)c(=O)[nH]1)C(=O)O (stereo not given) | % | -24.4 |
| C=CC(=O)OCCC#N | % | 18.8 |
| O=C(Nc1ccc(C(=O)O)cc1)Nc1nccs1 | % | 6.5 |
| C1CCC2CC(NC3=NCCO3)CCC2C1 (stereo not given) | % | 21.1 |
| CC12CC3C(CC1SCC(=O)O2)C3(C)C (stereo not given) | % | -1.1 |
| O=c1[nH]c(=O)n(C2CC(O)C(CO)O2)cc1Cl (stereo not given) | % | -11.1 |
| CC(NC(=O)OCc1ccccc1)NC(=O)OC(C)(C)C (stereo not given) | % | -63.5 |
| C[n+]1ccsn1 | % | 3.05 |
